assay: Determination of kinetic solubility (pH 7.4); format: physicochemical; settings: phosphate buffer, pH 7.4, aqueous buffer, kinetic from dmso stock, 50 mM phosphate buffer pH 7.4, read-out: Ksol, pH 7.4
Records here are stratified by solubility kinetic at 2 h; strata: I: < 60 µg/mL; II: ≥ 60 µg/mL and < 100 µg/mL; III: ≥ 100 µg/mL

Cc1nsc(/C=C/C(=O)N2CCN(c3nc(OC[C@@]45CCCN4C[C@H](F)C5)nc4c3C[C@@H](C)[C@H](c3nc(N)cc(C)c3C(F)(F)F)C4)C[C@@H]2CC#N)n1 [Compound 192] ... I

Exercise: Which class holds CO[C@H]1CCN(C/C=C/C(=O)N2CCN(c3nc(OC[C@@]45CCCN4C[C@H](F)C5)nc4c(F)c(-c5cccc6cccc(Cl)c56)ncc34)C[C@@H]2CC#N)C1 [Compound 190] ?
Key: II

Exercise: Please classify: N#CC[C@H]1CN(c2nc(OC[C@@]34CCCN3C[C@H](O)C4)nc3c(F)c(-c4cccc5ccc(F)c(Cl)c45)ncc23)CCN1C(=O)/C=C/CN1CCOCC1 [Compound 321]
Key: III

Exercise: Sort CN1CC[C@@H]1/C=C/C(=O)N1CCN(c2nc(OC[C@@]34CCCN3C[C@H](F)C4)nc3c(F)c(-c4cccc(Cl)c4C4CC4)ncc23)C[C@@H]1CC#N [Compound 305] into one of the categories.
Key: III

Exercise: Could you tell me which band CCc1noc(/C=C/C(=O)N2CCN(c3nc(OCC45CCCN4CCC5)nc4c(F)c(-c5cccc6cccc(Cl)c56)ncc34)C[C@@H]2CC#N)n1 [Compound 26] belongs to?
Key: II

Exercise: Band assignment needed for Cc1nccc(/C=C/C(=O)N2CCN(c3nc(OC[C@@]45CCCN4C[C@H](F)C5)nc4c3CCN(c3cccc5cccc(Cl)c35)C4)C[C@@H]2CC#N)n1 [Compound 123] please.
Key: I

Exercise: For Cn1cc(/C=C/C(=O)N2CCN(c3nc(OCC45CCCN4CCC5)nc4c3CCN(c3cccc5cccc(Cl)c35)C4)C[C@@H]2CC#N)nn1 [Compound 117] , which solubility kinetic at 2 h bin applies?
Key: III

Where do the numbers come from? From patent US20250129103A1.
